assay: Microsomal stability assay; format: in vitro ADME, human; conditions: liver microsomes, pH 7.4; scaled: 52.5 mg protein/g liver, 22.0 g liver/kg, human
parameter: CLint scaled at 1 µM (mL/min/kg)

cpd_smiles=C[C@H]1COC2(CCN(c3nc(=O)c4cc(I)cc([N+](=O)[O-])c4s3)CC2)O1 reported_value=19.1
cpd_smiles=C[C@H]1COC2(CCN(c3nc(=O)c4cc(Br)cc([N+](=O)[O-])c4s3)CC2)O1 reported_value=18.4
cpd_smiles=COC(=O)c1cc([N+](=O)[O-])c2sc(N3CCC4(CC3)OC[C@H](C)O4)nc(=O)c2c1 reported_value=363
cpd_smiles=CON(C)C(=O)c1cc([N+](=O)[O-])c2sc(N3CCC4(CC3)OC[C@H](C)O4)nc(=O)c2c1 reported_value=11
cpd_smiles=C[C@H]1COC2(CCN(c3nc(=O)c4cccc([N+](=O)[O-])c4s3)CC2)O1 reported_value=5.8
cpd_smiles=CC(C)OC(=O)c1cc([N+](=O)[O-])c2sc(N3CCC4(CC3)OC[C@H](C)O4)nc(=O)c2c1 reported_value=61.1
cpd_smiles=C[C@H]1COC2(CCN(c3nc(=O)c4cc(C(=O)N(C)C)cc([N+](=O)[O-])c4s3)CC2)O1 reported_value=3
cpd_smiles=C[C@H]1COC2(CCN(c3nc(=O)c4cc(C#N)cc([N+](=O)[O-])c4s3)CC2)O1 reported_value=15.4
